# Lookup of reported aptazyme ON/OFF ratio keyed by entry
B1: Pistol ribozyme (parent)
chain: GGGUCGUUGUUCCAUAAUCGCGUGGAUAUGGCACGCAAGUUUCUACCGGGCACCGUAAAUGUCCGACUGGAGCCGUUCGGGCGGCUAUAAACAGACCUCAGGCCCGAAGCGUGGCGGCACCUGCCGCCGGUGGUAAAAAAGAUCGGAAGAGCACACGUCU

variants of: B1; assay: aptazyme ON/OFF ratio, guanine; higher = stronger switching; co-transcriptional cleavage with and without guanine
Property Name: aptazyme ON/OFF ratio

>  <Mutation Descriptor>
U7G G9A U10A C12U C13G

>  <Property Name>
aptazyme ON/OFF ratio

>  <Test Value>
1.24

$$$$
>  <Mutation Descriptor>
U7C U8A G9A C12G

>  <Property Name>
aptazyme ON/OFF ratio

>  <Test Value>
1.26

$$$$
>  <Mutation Descriptor>
U7A U8G G9C U10G U11C

>  <Property Name>
aptazyme ON/OFF ratio

>  <Test Value>
1.04

$$$$
>  <Mutation Descriptor>
G9A C12A C13A

>  <Property Name>
aptazyme ON/OFF ratio

>  <Test Value>
1.45

$$$$
>  <Mutation Descriptor>
U7C U8G G9A C12G C13A

>  <Property Name>
aptazyme ON/OFF ratio

>  <Test Value>
1.15

$$$$
>  <Mutation Descriptor>
U7C U8A G9C U10G U11C C12G C13A

>  <Property Name>
aptazyme ON/OFF ratio

>  <Test Value>
1.25

$$$$
>  <Mutation Descriptor>
G9U U11G

>  <Property Name>
aptazyme ON/OFF ratio

>  <Test Value>
1.74

$$$$
>  <Mutation Descriptor>
U7A G9U U10A U11C C12U C13G

>  <Property Name>
aptazyme ON/OFF ratio

>  <Test Value>
1.12

$$$$
>  <Mutation Descriptor>
U7G U8C G9U U10A C12A C13U

>  <Property Name>
aptazyme ON/OFF ratio

>  <Test Value>
1.24

$$$$
>  <Mutation Descriptor>
U7A U8A U10G U11A C12U C13A

>  <Property Name>
aptazyme ON/OFF ratio

>  <Test Value>
1.35

$$$$
>  <Mutation Descriptor>
U7G G9A U10G C12U

>  <Property Name>
aptazyme ON/OFF ratio

>  <Test Value>
1.14

$$$$
>  <Mutation Descriptor>
U7C G9U U10G U11A C12A C13G

>  <Property Name>
aptazyme ON/OFF ratio

>  <Test Value>
1.13

$$$$
>  <Mutation Descriptor>
U7G U8C G9A U10A U11C C12A

>  <Property Name>
aptazyme ON/OFF ratio

>  <Test Value>
1.31

$$$$
>  <Mutation Descriptor>
U7G U8A G9U C12G

>  <Property Name>
aptazyme ON/OFF ratio

>  <Test Value>
1.1

$$$$
>  <Mutation Descriptor>
U7A G9A U11G C13U

>  <Property Name>
aptazyme ON/OFF ratio

>  <Test Value>
1.38

$$$$
>  <Mutation Descriptor>
U8G G9U U10G C12A C13A

>  <Property Name>
aptazyme ON/OFF ratio

>  <Test Value>
1.03

$$$$
>  <Mutation Descriptor>
U7G U8G G9U C13A

>  <Property Name>
aptazyme ON/OFF ratio

>  <Test Value>
1.44

$$$$
>  <Mutation Descriptor>
U7C U8G G9U U11A C13G

>  <Property Name>
aptazyme ON/OFF ratio

>  <Test Value>
1.09

$$$$
>  <Mutation Descriptor>
U7C U8C U10C U11C C12G C13U

>  <Property Name>
aptazyme ON/OFF ratio

>  <Test Value>
1.31

$$$$
>  <Mutation Descriptor>
U7C U8A U10G U11G

>  <Property Name>
aptazyme ON/OFF ratio

>  <Test Value>
1.24

$$$$
>  <Mutation Descriptor>
U7A U8C G9A U10C U11G C12U C13A

>  <Property Name>
aptazyme ON/OFF ratio

>  <Test Value>
1.29

$$$$
>  <Mutation Descriptor>
U7C U8G G9C U10A U11A C12U C13G

>  <Property Name>
aptazyme ON/OFF ratio

>  <Test Value>
1.17

$$$$
